Source of measurements: ChEMBL document CHEMBL1152391

target_of_assay: Histamine H3 receptor (Mus musculus, UniProt P58406)
Sequence (P58406 whole entry): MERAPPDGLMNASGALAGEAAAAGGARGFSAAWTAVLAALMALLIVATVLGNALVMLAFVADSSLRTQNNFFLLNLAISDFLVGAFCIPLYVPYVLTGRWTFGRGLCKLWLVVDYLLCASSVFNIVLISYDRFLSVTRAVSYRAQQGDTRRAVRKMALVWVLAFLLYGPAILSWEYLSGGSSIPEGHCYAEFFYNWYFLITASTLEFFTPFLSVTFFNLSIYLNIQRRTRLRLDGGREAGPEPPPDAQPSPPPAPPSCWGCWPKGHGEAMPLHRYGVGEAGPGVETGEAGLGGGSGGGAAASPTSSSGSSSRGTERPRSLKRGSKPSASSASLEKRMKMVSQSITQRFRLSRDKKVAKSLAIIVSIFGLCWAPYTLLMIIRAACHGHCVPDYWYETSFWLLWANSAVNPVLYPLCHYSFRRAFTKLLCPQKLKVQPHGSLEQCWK
assay_summary: Binding affinity to histamine H3 receptor in wild type mouse brain membrane
Assay type: cell membranes
readout_name: pKd
Answers are plain numbers, as −log10 of the molar value.

// query pKd value for entry `[3H]C([3H])([3H])n1c(-c2ccc(OCCCN3CCCC3)cc2)nc2ccccc2c1=O`
8.51

----------
List of pKi tested on Histamine H3 receptor (Mus musculus).
Numbers only, as −log10 of the molar value.

>>> print(df.to_string())
                                   compound  readout_name   val
0              N=C(N)SCCc1cnc[nH]1 [IMETIT]           pKi  8.70
1                            CNCCc1c[nH]cn1           pKi  7.72
2  S=C(NC1CCCCC1)N1CCC(c2cnc[nH]2)CC1 [THIOPERAMIDE]           pKi  8.32

Next up:
// query pKi value for entry NCCc1c[nH]cn1 [HISTAMINE]
7.17

----------
target_of_assay: Histamine H2 receptor (Homo sapiens)
Sequence (P25021 whole entry): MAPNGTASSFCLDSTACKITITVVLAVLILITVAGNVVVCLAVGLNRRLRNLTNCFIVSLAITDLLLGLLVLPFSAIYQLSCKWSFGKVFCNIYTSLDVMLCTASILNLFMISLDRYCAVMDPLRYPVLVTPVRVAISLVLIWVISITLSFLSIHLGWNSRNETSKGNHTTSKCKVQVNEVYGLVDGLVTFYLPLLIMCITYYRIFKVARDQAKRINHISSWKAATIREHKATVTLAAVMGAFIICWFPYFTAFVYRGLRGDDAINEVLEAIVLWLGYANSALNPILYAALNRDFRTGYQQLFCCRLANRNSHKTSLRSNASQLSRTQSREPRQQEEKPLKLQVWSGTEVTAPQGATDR
pIC50: −log10 of the molar value.
readout_name: pIC50

// query pIC50 value for entry `Cn1c(-c2ccc(OCCCN3CCCC3)cc2)nc2ccccc2c1=O`
< 5.00

----------
assay_summary: Drug level in Sprague-Dawley rat cerebrospinal fluid at 10 mg/kg, po after 2 hrs
Format: ADME, organism-based
Design: dose 10 mg/kg, route oral
details: read-out: Drug uptake
readout_name: concentration at 2 h
Your reply should be a number followed by the unit it is expressed in.

// query concentration at 2 h value for entry `Cn1c(-c2ccc(OCCCN3CCCC3)cc2)nc2ccccc2c1=O`
134 nM

----------
target_of_assay: UniProtKB P35367
Sequence (P35367 whole entry): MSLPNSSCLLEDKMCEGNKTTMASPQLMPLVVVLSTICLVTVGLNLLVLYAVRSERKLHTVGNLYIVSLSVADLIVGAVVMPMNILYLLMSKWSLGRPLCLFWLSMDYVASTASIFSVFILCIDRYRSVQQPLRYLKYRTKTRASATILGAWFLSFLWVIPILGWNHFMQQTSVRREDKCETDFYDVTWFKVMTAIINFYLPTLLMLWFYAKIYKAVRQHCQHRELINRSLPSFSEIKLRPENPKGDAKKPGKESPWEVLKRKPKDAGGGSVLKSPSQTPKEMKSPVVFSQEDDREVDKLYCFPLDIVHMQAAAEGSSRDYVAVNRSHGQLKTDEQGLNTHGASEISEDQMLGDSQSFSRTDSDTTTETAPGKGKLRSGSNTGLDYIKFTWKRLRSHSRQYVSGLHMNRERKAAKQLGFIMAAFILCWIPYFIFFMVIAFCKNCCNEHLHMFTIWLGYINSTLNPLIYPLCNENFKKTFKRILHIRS
readout_name: IC50

// query IC50 value for entry `Cn1c(-c2ccc(OCCCN3CCCC3)cc2)nc2ccccc2c1=O`
> 10 µM

----------
target_of_assay: Histamine H3 receptor (Mus musculus, UniProt P58406)
assay_summary: Inverse agonist activity at mouse histamine H3 receptor overexpressed in HEK293 cells by [35S]GTPgammaS binding assay
Kindly supply the reported EC50 values for the records listed here.
Answers are plain numbers, in nM.

                            compound  readout_name  val
0  NC(=NCc1ccc(Cl)cc1)SCCCc1cnc[nH]1          EC50  1.7

Please supply EC50 for each of the following items, keeping them in order.
1. S=C(NC1CCCCC1)N1CCC(c2cnc[nH]2)CC1 [THIOPERAMIDE]
2. Cn1c(-c2ccc(OCCCN3CCCC3)cc2)nc2ccccc2c1=O

1: 11; 2: 9.6

----------
target_of_assay: Histamine H3 receptor (Mus musculus)
assay_summary: Binding affinity to mouse histamine H3 receptor overexpressed in HEK293 cells
Type: cell-based
readout_name: pKd
Answers are plain numbers, as −log10 of the molar value.

// query pKd value for entry `[3H]C([3H])([3H])n1c(-c2ccc(OCCCN3CCCC3)cc2)nc2ccccc2c1=O`
8.59
